Items are presented alongside their recorded ΔTm.
target: Tyrosine-protein kinase ABL1 (Homo sapiens) (UniProt P00519); conditions: Compound concentration 20.0 uM, Protein concentration 2.0 uM, Result type QC Liability
Sequence (P00519 whole entry): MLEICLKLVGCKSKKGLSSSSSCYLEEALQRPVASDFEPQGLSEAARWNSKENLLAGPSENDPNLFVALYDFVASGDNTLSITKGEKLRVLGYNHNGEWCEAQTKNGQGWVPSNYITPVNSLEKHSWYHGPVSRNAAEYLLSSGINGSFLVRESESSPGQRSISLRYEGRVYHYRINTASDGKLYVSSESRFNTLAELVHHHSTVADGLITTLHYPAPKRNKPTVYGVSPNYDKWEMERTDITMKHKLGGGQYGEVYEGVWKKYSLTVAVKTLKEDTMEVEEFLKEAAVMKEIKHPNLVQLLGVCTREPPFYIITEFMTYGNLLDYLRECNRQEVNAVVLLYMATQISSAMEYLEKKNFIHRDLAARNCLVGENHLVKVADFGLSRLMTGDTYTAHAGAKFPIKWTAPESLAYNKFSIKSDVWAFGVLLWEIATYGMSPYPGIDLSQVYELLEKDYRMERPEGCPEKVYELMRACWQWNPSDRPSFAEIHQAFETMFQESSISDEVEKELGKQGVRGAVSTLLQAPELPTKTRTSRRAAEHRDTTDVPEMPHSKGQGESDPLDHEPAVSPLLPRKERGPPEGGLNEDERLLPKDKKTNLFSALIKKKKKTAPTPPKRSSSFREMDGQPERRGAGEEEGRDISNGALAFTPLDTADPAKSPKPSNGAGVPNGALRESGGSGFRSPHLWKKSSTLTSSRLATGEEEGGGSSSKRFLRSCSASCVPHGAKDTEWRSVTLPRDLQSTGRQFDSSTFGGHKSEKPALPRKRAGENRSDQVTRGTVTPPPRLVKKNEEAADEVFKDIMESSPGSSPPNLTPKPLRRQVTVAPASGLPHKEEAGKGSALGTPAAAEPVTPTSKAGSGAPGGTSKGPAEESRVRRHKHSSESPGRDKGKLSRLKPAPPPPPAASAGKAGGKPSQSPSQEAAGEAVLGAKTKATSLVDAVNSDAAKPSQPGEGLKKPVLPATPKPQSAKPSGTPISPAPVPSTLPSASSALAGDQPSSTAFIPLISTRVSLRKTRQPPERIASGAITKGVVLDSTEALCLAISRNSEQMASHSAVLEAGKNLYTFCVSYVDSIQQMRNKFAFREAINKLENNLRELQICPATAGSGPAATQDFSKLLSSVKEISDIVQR
Description: Thermal Shift Assay. Domain: start/stop: S229-K512
Entry rule: numbers only, all in °C.

Examples with answers:
compound structure	ΔTm, °C
CCC(C)(C)CC[C@H](NC(=O)N1CCOCC1)C(=O)NC1(C#N)CCN(C)CC1	-0.14
COC(=O)c1ccc2c(c1)NC(=O)/C2=C(\Nc1ccc(-c2nccn2C)cc1)c1ccccc1	3.43
COc1cc(C(N)=O)ccc1Nc1ncc2c(n1)N(CCC(C)C)[C@H](C)C(=O)N2C	1.42
c1ccc2c(c1)SCc1c-2[nH]c2ccccc12	-6.18
Fc1ccc(-c2nc(-c3c(F)cccc3F)[nH]c2-c2ccncc2)cc1	4.45

According to the records, this compound COc1cc(-c2cncc(-c3cnn(C4CCNCC4)c3)c2)cc(OC)c1OC displays ΔTm of 4.87

Kindly note the recorded ΔTm for CC1CCN(C(=O)[C@@H](CCn2cccc2C#N)NS(=O)(=O)c2cccc3[nH]ccc23)CC1 , which is 0.25

Briefly, ΔTm measured for C=CC(=O)Nc1cccc(C(=O)Nc2ccc(Nc3cc(-c4c(-c5ccc(F)cc5)nc(SC)n4C)ccn3)cc2)c1 : 2.33

----------
Measured ΔTm accompanies every entry in the list below.
target: Cyclin-dependent kinase 2 (Homo sapiens) (UniProt P24941); details: Compound concentration 20.0 uM, Protein concentration 2.0 uM, Result type QC Liability
Description: Thermal Shift Assay. Domain: start/stop: M1-L298
The figure you give is taken to be in °C; do not add the unit.

compound	ΔTm [°C]
CS(=O)(=O)c1cc(C2(NC(=O)c3cncc4c3cnn4-c3ccc(F)cc3)CC2)ccn1	0.77
COCc1c(-c2cc3cc(C)cc(OC)c3s2)c2c(N)ncnn2c1CN[C@@H]1CCNC1=O	0.59
CS(C)(=O)=Nc1ccc(-c2ccc(-c3nc4[nH]c(O[C@@H]5CO[C@H]6[C@@H]5OC[C@H]6O)nc4cc3Cl)cc2)cc1	0.06

get_value(item= CN(C)C(=O)Cn1cc(-c2ccc(-c3nnc4ccccn34)cc2)cn1 , readout=ΔTm) returns 0.44

The value of ΔTm measured for the compound CC(=O)Oc1ccc2c(c1)[C@@]1(C)CCC[C@](C)(C(=O)OC(=O)[C@@]3(C)CCC[C@]4(C)c5cc(OC(C)=O)ccc5CC[C@@H]34)[C@@H]1CC2 turned out to be 0.49

Record summary for Cc1ccc(NS(=O)(=O)c2ccc3c(c2)C2C=CCC2C(c2ccc(C(=O)O)cc2)N3)cc1C (configuration not stated) : reported ΔTm = 1.5

// ΔTm lookup, compound = CCc1nc(-c2cccc(C)c2)c(-c2ccnc(NC(=O)c3ccccc3)c2)s1 , result: -1.36

----------
target: Mitogen-activated protein kinase 1 (Homo sapiens) (UniProt P28482); settings: Compound concentration 20.0 uM, Protein concentration 2.0 uM, Result type QC Liability
Sequence (P28482 whole entry): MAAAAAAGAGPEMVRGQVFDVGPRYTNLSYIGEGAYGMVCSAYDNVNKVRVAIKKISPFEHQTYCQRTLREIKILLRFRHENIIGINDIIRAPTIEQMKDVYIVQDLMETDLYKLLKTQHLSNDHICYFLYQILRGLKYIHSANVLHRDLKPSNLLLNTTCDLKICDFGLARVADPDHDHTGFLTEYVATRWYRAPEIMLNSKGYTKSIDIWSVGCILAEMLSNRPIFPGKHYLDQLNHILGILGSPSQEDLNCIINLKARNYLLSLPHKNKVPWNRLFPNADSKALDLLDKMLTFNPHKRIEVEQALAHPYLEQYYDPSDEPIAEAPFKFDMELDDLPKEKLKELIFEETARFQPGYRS
Description: Thermal Shift Assay. Domain: start/stop: M1-S360
metric: ΔTm (°C)
Field format: number, assumed °C, no unit text.

compound structure	unit string	ΔTm
COc1ccccc1N1CCN(c2ncnc3c2cnn3-c2ccccc2)CC1	°C	-0.07
CN(C)C(=O)Cn1cc(-c2ccc(-c3nnc4ccccn34)cc2)cn1	°C	0.27
CCS(=O)(=O)c1ccc(OC)c(Nc2ncc(-c3cccc(F)c3)o2)c1	°C	0.11
NC(=O)c1ccccc1Nc1nc(-c2ccc(N3CCOCC3)cc2)cc2ncccc12	°C	0.67
COc1cc(-c2cncc(-c3ccc(N4CCN(C(C)C)CC4)cc3)c2C)cc(F)c1C(N)=O	°C	0.21

Let's switch to this compound now.
Record summary for OC(c1ccc(-c2ccc(CN3CCN(Cc4ccncc4)CC3)cc2)c(F)c1)(C(F)(F)F)C(F)(F)F : reported ΔTm = 0.02

----------
molecular target: Casein kinase I isoform delta (Homo sapiens); settings: Compound concentration 20.0 uM, Protein concentration 2.0 uM, Result type QC Liability
Description: Thermal Shift Assay. Domain: start/stop: M1-K294
Classify by ΔTm. Ranges: low = under 0.3 °C, mid = from 0.3 °C up to 0.6 °C, high = 0.6 °C and over

# input Please report the category associated with Cn1ncc(NC(=O)c2nc(-c3c(F)cccc3F)sc2N)c1N1CC[C@@H](N)[C@H](F)CC1 , nothing else.
# output mid

# input Kindly identify the class of CS(=O)(=O)NCC[C@H](NC(=O)c1cncc2c1cnn2-c1ccc(F)cc1)c1ccnc(S(C)(=O)=O)c1 .
# output mid

----------
The reader will find reported ΔTm values listed item by item below.
target: Glycogen synthase kinase-3 beta (Homo sapiens) (UniProt P49841); details: Compound concentration 20.0 uM, Protein concentration 2.0 uM, Result type QC Liability
Sequence (P49841 whole entry, looked up): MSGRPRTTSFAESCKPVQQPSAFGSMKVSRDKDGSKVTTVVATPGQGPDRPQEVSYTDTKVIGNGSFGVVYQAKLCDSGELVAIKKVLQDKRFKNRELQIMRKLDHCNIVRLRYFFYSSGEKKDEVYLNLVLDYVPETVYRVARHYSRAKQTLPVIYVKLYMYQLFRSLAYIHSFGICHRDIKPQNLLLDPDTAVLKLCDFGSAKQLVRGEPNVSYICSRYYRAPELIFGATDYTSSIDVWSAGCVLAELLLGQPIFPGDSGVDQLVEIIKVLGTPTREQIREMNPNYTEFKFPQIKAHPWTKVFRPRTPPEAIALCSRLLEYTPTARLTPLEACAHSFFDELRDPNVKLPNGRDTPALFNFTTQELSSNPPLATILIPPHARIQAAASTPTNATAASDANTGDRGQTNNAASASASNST
Description: Thermal Shift Assay. Domain: start/stop: M26-R383
Quick reminder: number only, in °C, skip the unit.

# example entries with known answers
compound structure	experimental target	quantitative result
CCCc1c(OCCCOc2ccc(OCC(=O)O)cc2)ccc(C(C)=O)c1O	Glycogen synthase kinase-3 beta (Homo sapiens) (UniProt P49841)	-0.07
Cn1cnc(Cn2ccc3ccc(CNCc4[nH]c5ccccc5c4[C@@H]4NC(=O)c5ccc(O)cc54)cc32)c1	Glycogen synthase kinase-3 beta (Homo sapiens) (UniProt P49841)	-0.16

CC(C)NC(=O)[C@H]1CCC[C@H]1Nc1nc(Nc2ccc(CN(C)C)cc2)ncc1Br on Glycogen synthase kinase-3 beta (Homo sapiens) (UniProt P49841) gives ΔTm = 0.23

----------
target: Tyrosine-protein kinase ABL1 (Homo sapiens) (UniProt P00519); conditions: Compound concentration 20.0 uM, Protein concentration 2.0 uM, Result type QC Liability
Classify: class 1 when ΔTm is strictly less than 0.5 °C; class 0 when ΔTm is not.

# count of solved cases: 10
molecule	label
O=C(Cc1ccccc1)Nc1nnc(N2CC[C@@H]3[C@H]2CN3c2cccnn2)s1	class 1
CNc1[nH]c(Nc2ccc(C(=O)N3CCOCC3)cc2OC)nc2ncc(Cl)c1-2	class 1
COC(=O)Nc1nc2c(s1)-c1c(c(-c3cccnc3)nn1-c1ccc(C3(N(C)C)CC3)cc1)CC2	class 0
CCNc1ccc(-c2nn(-c3ccccc3C)c3c2C(C)Cc2nc(NC(=O)OC)sc2-3)cn1 (stereo not drawn)	class 1
COc1cnccc1Nc1nc(-c2nn(Cc3c(F)cc(OCCO)cc3F)c3ccccc23)ncc1OC	class 1
C[C@]12CC[C@@H]3c4ccc(O)cc4CC[C@H]3[C@@H]1C[C@H]1OC(=O)C[C@]12O	class 1
C=C1/C(=C\C=C2/CCC[C@]3(C)[C@@H]([C@H](C)CCCC(C)(C)O)CC[C@@H]23)C[C@@H](O)C[C@@H]1O	class 1
C=CC[C@@H]1/C=C(\C)C[C@H](C)C[C@H](OC)[C@H]2O[C@@](O)(C(=O)C(=O)N3CCCC[C@H]3C(=O)O[C@H](/C(C)=C/[C@@H]3CC[C@@H](O)[C@H](OC)C3)[C@H](C)[C@@H](O)CC1=O)[C@H](C)C[C@@H]2OC	class 1
CC1(C)CCC(CN2CCN(c3ccc(C(=O)NS(=O)(=O)c4ccc(NCC5CCOCC5)c([N+](=O)[O-])c4)c(Oc4cnc5[nH]ccc5c4)c3)CC2)=C(c2ccc(Cl)cc2)C1	class 1
C[C@@H]1COCCN1c1cc(=O)n2c(n1)N(Cc1cncc(Cl)c1)[C@H](C(F)(F)F)CC2	class 0

# input For this molecule, is ΔTm lower than 0.5 °C? CC(C)C(=O)N[C@@H]1CCN(C(=O)Nc2nc3c(s2)-c2nc(-c4ccccc4Cl)ncc2CC3)C1
# output class 0

# input is_below(ΔTm, 0.5 °C) for Cc1cc(Cn2c(N3CC4(CNC4)C3)nc3cc(Cl)cc(N4CCN(C)CC4)c32)cc(C)c1F ?
# output class 1

# input Here's an entry: CC[C@H](NC(=O)[C@H](C)NC)C(=O)N1C[C@@H](O)C[C@H]1Cc1c(-c2[nH]c3cc(F)ccc3c2C[C@@H]2C[C@H](O)CN2C(=O)[C@H](CC)NC(=O)[C@H](C)NC)[nH]c2cc(F)ccc12 . Is its ΔTm below 0.5 °C?
# output class 1

# input Field: below-cutoff. Rule: recorded ΔTm strictly less than 0.5 °C. Subject: CC1=C(C(=O)OCCO)[C@@H](c2ccc(C#N)cc2)NC(=O)N1c1cccc(C(F)(F)F)c1
# output class 1

# input I'd appreciate it if you could check whether Cn1cc(NC(=O)c2ccc3nc4n(c3c2)CCCNC4=O)nc1C(=O)NC1CCCC1 has ΔTm smaller than 0.5 °C.
# output class 0

# input Does CCn1c(CNC(=O)c2ncc(C)nc2N)[n+](CC)c2ccc(C(=O)N(C)CCN(C)C)cc21 have ΔTm strictly under 0.5 °C?
# output class 1

# input I'd appreciate it if you could check whether Cn1ccc(Cn2cnc(-c3ccc(F)cc3)c2-c2ccnc3[nH]ccc23)n1 has ΔTm smaller than 0.5 °C.
# output class 0

# input In plain terms, does CS(=O)(=O)c1cc(C2(NC(=O)c3cncc4c3cnn4-c3ccc(F)cc3)CC2)ccn1 come in under 0.5 °C for ΔTm?
# output class 1

# input API: query returns whether the molecule falls strictly under 0.5 °C in ΔTm. Query: CC(C=CC1=C(C)CCCC1(C)C)=CC=CC(C)=CC(=O)O
# output class 1

# input # check: ΔTm < 0.5 °C for Cc1cc(CN)cc(C)c1-c1ncn(C)c1-c1cncn1C
# output class 1

# input Decide: ΔTm of Cn1nc(C(=O)NCc2ccc(C(=O)O)cc2)cc1-c1ccc2[nH]ccc2c1 strictly below 0.5 °C?
# output class 0

# input Hello, is ΔTm of the following molecule strictly smaller than 0.5 °C? CCc1ccc(N(CC(C)C)S(=O)(=O)c2ccc(OCC3CCOCC3)c(CO)c2)cc1
# output class 1

# input State whether 0.5 °C exceeds ΔTm recorded for C[C@@]1(Cc2ccc(C#N)cc2)C(=O)N(c2cc(Cl)cc(Cl)c2)c2ncc(C(=O)NC3(c4nc(C5CCC5)no4)CC3)n21 .
# output class 1

# input Determine whether this molecule shows ΔTm lower than 0.5 °C (ties excluded): CCCS(=O)(=O)Nc1ccc(F)c(Nc2ncnc3cnc(-n4cnc(C)c4)nc23)c1F
# output class 0

# input Confirm or reject: ΔTm of Cc1nc2c(cc1F)c(-c1nnc3c(n1)NC(=O)C3(C)C)nn2Cc1cccc(F)c1F lies strictly below 0.5 °C
# output class 0
